target: YcgR (STM1798) (Salmonella enterica, UniProt Q8ZP19); experiment: FRET of YPet-PilZ-CyPet fusion protein, titration
Sequence (Q8ZP19 whole entry, the tested form may be a part): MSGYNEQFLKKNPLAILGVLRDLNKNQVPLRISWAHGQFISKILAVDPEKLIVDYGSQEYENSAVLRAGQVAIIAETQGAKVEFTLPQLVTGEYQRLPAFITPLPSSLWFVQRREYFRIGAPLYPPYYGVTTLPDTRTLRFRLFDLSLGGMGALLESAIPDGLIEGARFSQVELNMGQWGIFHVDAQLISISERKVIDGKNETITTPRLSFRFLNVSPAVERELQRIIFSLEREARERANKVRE
measure name: pKd
Scale: pKd equals -log10([C]), with [C] in mol/L.

Field pKd (entry Nc1nc2c(ncn2[C@@H]2O[C@@H]3CO[P@](=O)(O)O[C@H]4[C@@H](O)[C@H](n5cnc6c(=O)[nH]c(N)nc65)O[C@@H]4CO[P@](=O)(O)O[C@H]3[C@H]2O)c(=O)[nH]1 [c-di-GMP] ) reads 6.72
